- Tested on: biotinyl-Leu-oxazolone
- ASSAY_PROTOCOL: self-aminoacylation, catalytic enhancement (BLO) (fold over background); higher = more active; k-Seq, kA / k0A0; sequences stand for … in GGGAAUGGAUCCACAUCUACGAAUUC…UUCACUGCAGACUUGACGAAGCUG
Variants at the floor of the assay were thinned out.
ASSAY_READOUT: self-aminoacylation
Numbers only.

Examples with their reported self-aminoacylation follow.
stdin: What value of self-aminoacylation has been reported for the following sequence? AUUCACCUAGGUCAUGGGGUC [Fam2.2 aminoacylation ribozyme variant]
stdout: 1.2

stdin: Next sequence up: AUUACCGUCGUCAUCGAGUGA [Fam2.1 aminoacylation ribozyme variant]
stdout: 3.42

stdin: Next sequence up: CUACUACAAACAAUCAGUCUG [Fam1A.1 aminoacylation ribozyme variant]
stdout: 0.7

stdin: Next sequence up: CCACAAUUCAAGAAAUCGGUC [Fam1B.1 aminoacylation ribozyme variant]
stdout: 0.866

stdin: Next sequence up: AUCCACCUAGGUCAUCGGGCG [Fam2.2 aminoacylation ribozyme variant]
stdout: 5.85

stdin: Next sequence up: CCACACUUCCUGCAAUCGGUC [Fam1B.1 aminoacylation ribozyme variant]
stdout: 1.11

Hi, could you look up self-aminoacylation for each item in my list?
1. AUUACUCUCGUCAUCGAGUGA [Fam2.1 aminoacylation ribozyme variant]
2. UAGUUUGCUGAUAGUCGCAAG [Fam3.1 aminoacylation ribozyme variant]
3. CUACAUUUCAAGCAAUCGGUC [Fam1B.1 aminoacylation ribozyme variant]
4. AUUACCCUGAUUAUCGAGUGA [Fam2.1 aminoacylation ribozyme variant]

stdout:
3.39
1.08
0.705
17.4

Hi, could you look up self-aminoacylation for each item in my list?
1. AUUACCCUGCUCGUCGAGUGA [Fam2.1 aminoacylation ribozyme variant]
2. AGUACUCUGGUCAUCGAGUGA [Fam2.1 aminoacylation ribozyme variant]
3. AUUACACUGGUCAUCGAGUUA [Fam2.1 aminoacylation ribozyme variant]
4. CCACGCUUCAAGCAAUCGGUG [Fam1B.1 aminoacylation ribozyme variant]
5. AAUAACCUAGGUCAUCGGGUG [Fam2.2 aminoacylation ribozyme variant]
6. CCACACUUCAAGCCAUGGGUC [Fam1B.1 aminoacylation ribozyme variant]

stdout:
0.689
3.94
1.09
5.09
4.57
1.14

Hi, could you look up self-aminoacylation for each item in my list?
1. CUACUUCAAAAAUUCGGUCUG [Fam1A.1 aminoacylation ribozyme variant]
2. AAGUUUGCUAAUAAUCACAAG [Fam3.1 aminoacylation ribozyme variant]

stdout:
[1.65, 1.08]

* * *

Consider the following sequences; for each one, report its self-aminoacylation.
- Tested on: biotinyl-Met-oxazolone
- ASSAY_PROTOCOL: self-aminoacylation, catalytic enhancement (BMO) (fold over background); higher = more active; k-Seq, kA / k0A0; sequences stand for … in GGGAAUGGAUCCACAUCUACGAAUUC…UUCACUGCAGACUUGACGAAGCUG
Fewer inactive variants are shown than the library holds.

Examples with their reported self-aminoacylation follow.
stdin: What value of self-aminoacylation has been reported for the following sequence? AUUAACCUGGACAUCGAGUGA [Fam2.1 aminoacylation ribozyme variant]
stdout: 6.63

stdin: Next sequence up: CUACUUCAAACAAUCCUUCUG [Fam1A.1 aminoacylation ribozyme variant]
stdout: 0.577

stdin: Next sequence up: CCACACUUCACGCAAUCUGUC [Fam1B.1 aminoacylation ribozyme variant]
stdout: 0.472

# input for lookup
stdin: What value of self-aminoacylation has been reported for the following sequence? AUUAGCCCGGUCAUCGAGUGA [Fam2.1 aminoacylation ribozyme variant]
stdout: 6.23

* * *

- Tested on: biotinyl-Leu-oxazolone
- ASSAY_PROTOCOL: self-aminoacylation, catalytic enhancement (BLO) (fold over background); higher = more active; k-Seq, kA / k0A0; sequences stand for … in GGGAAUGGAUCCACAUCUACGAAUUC…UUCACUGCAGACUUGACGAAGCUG
Fewer inactive variants are shown than the library holds.
Criterion: self-aminoacylation meeting or surpassing 2. Met: 1. Not met: -1.

stdin: Has AUUCACCUAGGUCCUCGGGCG [Fam2.2 aminoacylation ribozyme variant] a recorded self-aminoacylation greater than or equal to 2?
stdout: 1

stdin: Next sequence up: AUUCCCCUGGUCAUCGAGGGA [Fam2.1 aminoacylation ribozyme variant]
stdout: -1

stdin: Next sequence up: AUUCACCUAGGUCAUCGGGCG [Fam2.2 aminoacylation ribozyme variant]
stdout: 1

stdin: Next sequence up: CUACUUCGAACAAUCGGUGUG [Fam1A.1 aminoacylation ribozyme variant]
stdout: -1

stdin: Next sequence up: AGUACGCUGGUCAUCGAGUGA [Fam2.1 aminoacylation ribozyme variant]
stdout: 1

stdin: Next sequence up: AAGUUUGCUAAUAUUCGCAAA [Fam3.1 aminoacylation ribozyme variant]
stdout: -1

* * *

- Tested on: biotinyl-Trp-oxazolone
- ASSAY_PROTOCOL: self-aminoacylation, catalytic enhancement (BWO) (fold over background); higher = more active; k-Seq, kA / k0A0; sequences stand for … in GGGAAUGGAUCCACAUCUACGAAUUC…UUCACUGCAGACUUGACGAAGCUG
Fewer inactive variants are shown than the library holds.
Criterion: self-aminoacylation meeting or surpassing 4. Met: yes (1). Not met: no (0).

stdin: Has CUUACCCUGGUGAUCGAGUGA [Fam2.1 aminoacylation ribozyme variant] a recorded self-aminoacylation greater than or equal to 4?
stdout: yes (1)

stdin: Next sequence up: CCACACUUCCAGCAAUCGGUG [Fam1B.1 aminoacylation ribozyme variant]
stdout: no (0)

stdin: Next sequence up: AUUACCGUGGUCAUCGAGUGU [Fam2.1 aminoacylation ribozyme variant]
stdout: yes (1)

stdin: Next sequence up: AUUACCGUGCUCAUCGAGUGA [Fam2.1 aminoacylation ribozyme variant]
stdout: no (0)

stdin: Next sequence up: AAGUUUGCUAAUAAUCGCGAG [Fam3.1 aminoacylation ribozyme variant]
stdout: no (0)

stdin: Next sequence up: AAGUUUGCGAAUAGUUGCAAG [Fam3.1 aminoacylation ribozyme variant]
stdout: no (0)

stdin: Next sequence up: AUUACCCUGUUCAUCGAGUGA [Fam2.1 aminoacylation ribozyme variant]
stdout: yes (1)

stdin: Next sequence up: CAGUUUGCUAAUAGUAGCAAG [Fam3.1 aminoacylation ribozyme variant]
stdout: no (0)

stdin: Next sequence up: AUUUCCUUGGUCAUCGAGUGA [Fam2.1 aminoacylation ribozyme variant]
stdout: yes (1)

* * *

- System: biotinyl-Trp-oxazolone
- ASSAY_PROTOCOL: self-aminoacylation, catalytic enhancement (BWO) (fold over background); higher = more active; k-Seq, kA / k0A0; sequences stand for … in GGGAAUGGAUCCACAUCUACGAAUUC…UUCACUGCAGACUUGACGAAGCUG
Variants at the floor of the assay were thinned out.
ASSAY_READOUT: self-aminoacylation
One number for each entry.

Examples with their reported self-aminoacylation follow.
stdin: What value of self-aminoacylation has been reported for the following sequence? AAGUUUGCUAAAAGUCGCAAC [Fam3.1 aminoacylation ribozyme variant]
stdout: 1.01

stdin: Next sequence up: GAGAUUGCUAAUAGUCGCAAG [Fam3.1 aminoacylation ribozyme variant]
stdout: 2.94

stdin: Next sequence up: UUUCACCUAGGUCAUCGGCUG [Fam2.2 aminoacylation ribozyme variant]
stdout: 2.74

stdin: Next sequence up: CCAAACUUCAAGCAAACGGUC [Fam1B.1 aminoacylation ribozyme variant]
stdout: 0.811

stdin: Next sequence up: CAACUUCAAACAAUGGGUCUG [Fam1A.1 aminoacylation ribozyme variant]
stdout: 0.937

Hi, could you look up self-aminoacylation for each item in my list?
1. CUAGUUCAAACACUCGGUCUG [Fam1A.1 aminoacylation ribozyme variant]
2. CUACUUCCAACAUUCGGUCUG [Fam1A.1 aminoacylation ribozyme variant]
3. GUACUUCAAACAAUCGGACUG [Fam1A.1 aminoacylation ribozyme variant]

stdout:
1: 1.04; 2: 1.16; 3: 5.26

Hi, could you look up self-aminoacylation for each item in my list?
1. AUUACCCUGGGCCUCGAGUGA [Fam2.1 aminoacylation ribozyme variant]
2. AUUAUCCUGGUCAUCGACUGA [Fam2.1 aminoacylation ribozyme variant]
3. AUUCAGCUAGGCCAUCGGGUG [Fam2.2 aminoacylation ribozyme variant]
4. GAGUUUGCUAAUAGUCACAAG [Fam3.1 aminoacylation ribozyme variant]
5. AAGUGUGCUAAUAGUCGUAAG [Fam3.1 aminoacylation ribozyme variant]

stdout:
[4.65, 0.498, 10.1, 4.25, 7.72]

Hi, could you look up self-aminoacylation for each item in my list?
1. AUUACCGUGGCCAUCGAGUGA [Fam2.1 aminoacylation ribozyme variant]
2. CCACACUUCAAGUAAUCGGCC [Fam1B.1 aminoacylation ribozyme variant]
3. AUUACCCUCGUCCUCGAGUGA [Fam2.1 aminoacylation ribozyme variant]
4. AUUACCCUGGUCAUCGAGUAC [Fam2.1 aminoacylation ribozyme variant]
5. AUUACCCUGGGCAUCAAGUGA [Fam2.1 aminoacylation ribozyme variant]

stdout:
8.11
4.17
6.18
4.57
1.64
